target: T1, bacterially produced human IL-6 (human, UniProt P05231 30-212); assay: SPR; purified Fab over biotinylated IL-6 on streptavidin chip
T1 construct: also called bactIL-6; prokaryotic IL-6
MEASURED_ENDPOINT: koff (s⁻¹)

BINDER	NUMERIC_RESULT
Fab 24C9 (Fab, V domains shown, Fab) VH: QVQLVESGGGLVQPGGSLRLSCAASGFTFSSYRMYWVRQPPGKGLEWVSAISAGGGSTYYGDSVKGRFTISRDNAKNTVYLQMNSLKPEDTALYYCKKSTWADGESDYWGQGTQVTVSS VL: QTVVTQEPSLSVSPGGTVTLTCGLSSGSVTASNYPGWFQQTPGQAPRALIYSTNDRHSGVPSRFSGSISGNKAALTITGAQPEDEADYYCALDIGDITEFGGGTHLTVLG	8.77e-05
Fab 24D10 (Fab, V domains shown, Fab; also called pur24d10; 28f12(24D10)) VH: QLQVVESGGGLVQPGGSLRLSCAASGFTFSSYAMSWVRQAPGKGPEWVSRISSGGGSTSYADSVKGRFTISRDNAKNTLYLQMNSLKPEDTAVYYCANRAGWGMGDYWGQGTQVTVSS VL: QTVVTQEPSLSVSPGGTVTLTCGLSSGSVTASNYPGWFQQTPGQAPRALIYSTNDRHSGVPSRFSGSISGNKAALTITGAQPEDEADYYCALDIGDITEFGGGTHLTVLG	1.69e-05
Fab 24E9 (Fab, V domains shown, Fab) VH: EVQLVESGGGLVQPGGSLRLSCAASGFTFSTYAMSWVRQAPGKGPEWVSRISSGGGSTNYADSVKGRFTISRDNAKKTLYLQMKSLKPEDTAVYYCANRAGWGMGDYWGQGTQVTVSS VL: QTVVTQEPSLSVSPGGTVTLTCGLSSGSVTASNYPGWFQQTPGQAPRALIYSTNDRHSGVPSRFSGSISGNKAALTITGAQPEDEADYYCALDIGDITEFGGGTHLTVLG	0.000139
Fab 29B11 (Fab, V domains shown, Fab) VH: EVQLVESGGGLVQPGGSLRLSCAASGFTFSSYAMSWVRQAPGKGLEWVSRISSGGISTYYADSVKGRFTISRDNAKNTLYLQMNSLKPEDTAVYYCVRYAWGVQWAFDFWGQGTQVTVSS VL: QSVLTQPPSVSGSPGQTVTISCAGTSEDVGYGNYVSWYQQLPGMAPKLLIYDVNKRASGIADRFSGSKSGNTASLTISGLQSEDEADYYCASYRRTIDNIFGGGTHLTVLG	0.00298
Fab 18C7 (Fab, V domains shown, Fab; also called 18C7 (090-423)) VH: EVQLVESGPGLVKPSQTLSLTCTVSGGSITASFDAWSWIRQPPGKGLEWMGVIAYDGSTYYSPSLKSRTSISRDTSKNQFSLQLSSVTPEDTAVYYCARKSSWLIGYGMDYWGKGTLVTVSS VL: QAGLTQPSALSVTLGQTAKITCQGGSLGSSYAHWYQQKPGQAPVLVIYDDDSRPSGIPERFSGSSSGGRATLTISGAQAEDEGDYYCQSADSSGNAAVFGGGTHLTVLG	0.00185
